Exercise: state measured Δλmax(b) (change in absorption maximum wavelength) for each of the molecules provided.
- MEASUREMENT NOTES: Moisture- and heat-resistances test of thin films
- Type: physicochemical
- ASSAY SETUP: thin film, 80° C., relative humidity 80%, 100 hours
Please give a number only; it is taken to be in nm.

Query string: Report Δλmax(b) (change in absorption maximum wavelength) for CCn1c([O-])c(/C=N/[N-]c2ncccn2)c(C)c(C#N)c1=O.CCn1c([O-])c(/C=N/[N-]c2ncccn2)c(C)c(C#N)c1=O.CCn1c([O-])c(/C=N/[N-]c2ncccn2)c(C)c(C#N)c1=O.CCn1c([O-])c(/C=N/[N-]c2ncccn2)c(C)c(C#N)c1=O.Oc1ccc(-c2ccccc2)cc1-[n+]1ccc(-c2cc[n+](-c3cc(-c4ccccc4)ccc3O)cc2)cc1.[Co+3].[Co+3] please.
Result string: 0

Query string: What do we get for Cc1c(/C=N/[N-]c2nnnn2-c2ccccc2)c([O-])n(CC(C)C)c(=O)c1C#N.Cc1c(/C=N/[N-]c2nnnn2-c2ccccc2)c([O-])n(CC(C)C)c(=O)c1C#N.Cc1c(/C=N/[N-]c2nnnn2-c2ccccc2)c([O-])n(CC(C)C)c(=O)c1C#N.Cc1c(/C=N/[N-]c2nnnn2-c2ccccc2)c([O-])n(CC(C)C)c(=O)c1C#N.Fc1ccc(-[n+]2ccc(-c3cc[n+](-c4ccc(F)cc4)cc3)cc2)cc1.[Co+3].[Co+3] ?
Result string: 0.5

Query string: Proceed to Cc1ccc(-n2c([O-])c(/C=N/[N-]c3nnnn3-c3ccccc3)c(C)c(C#N)c2=O)cc1.Cc1ccc(-n2c([O-])c(/C=N/[N-]c3nnnn3-c3ccccc3)c(C)c(C#N)c2=O)cc1.Cc1ccc(-n2c([O-])c(/C=N/[N-]c3nnnn3-c3ccccc3)c(C)c(C#N)c2=O)cc1.Cc1ccc(-n2c([O-])c(/C=N/[N-]c3nnnn3-c3ccccc3)c(C)c(C#N)c2=O)cc1.[Co+3].[Co+3].c1cc[n+]2c(c1)-c1cccc[n+]1CCC2
Result string: 0

Query string: Please give the result for Cc1c(/C=N/[N-]c2nc3ccccc3o2)c([O-])n(Cc2ccccc2)c(=O)c1C#N.Cc1c(/C=N/[N-]c2nc3ccccc3o2)c([O-])n(Cc2ccccc2)c(=O)c1C#N.Cc1c(/C=N/[N-]c2nc3ccccc3o2)c([O-])n(Cc2ccccc2)c(=O)c1C#N.Cc1c(/C=N/[N-]c2nc3ccccc3o2)c([O-])n(Cc2ccccc2)c(=O)c1C#N.[Co+3].[Co+3].c1cc[n+]2c(c1)-c1cccc[n+]1CCC2 too.
Result string: 0

Query string: And Cc1c(/C=N/[N-]c2nnnn2-c2ccccc2)c([O-])n(CC(C)C)c(=O)c1C#N.Cc1c(/C=N/[N-]c2nnnn2-c2ccccc2)c([O-])n(CC(C)C)c(=O)c1C#N.Cc1c(/C=N/[N-]c2nnnn2-c2ccccc2)c([O-])n(CC(C)C)c(=O)c1C#N.Cc1c(/C=N/[N-]c2nnnn2-c2ccccc2)c([O-])n(CC(C)C)c(=O)c1C#N.[Co+3].[Co+3].c1ccc2c[n+](CCCCCCCCCC[n+]3ccc4ccccc4c3)ccc2c1 ?
Result string: 0

* * *

- MEASUREMENT NOTES: Moisture- and heat-resistances test of thin films
- Format: physicochemical
- ASSAY SETUP: thin film, 80° C., relative humidity 80%, 100 hours
MEASUREMENT TYPE: Δλmax(b) (change in absorption maximum wavelength)
Please answer using the number first and the unit second.

Query string: # Δλmax(b) (change in absorption maximum wavelength) lookup, item Cc1c(/C=N/[N-]c2nnnn2-c2ccccc2)c([O-])n(CC(C)C)c(=O)c1C#N.Cc1c(/C=N/[N-]c2nnnn2-c2ccccc2)c([O-])n(CC(C)C)c(=O)c1C#N.Cc1c(/C=N/[N-]c2nnnn2-c2ccccc2)c([O-])n(CC(C)C)c(=O)c1C#N.Cc1c(/C=N/[N-]c2nnnn2-c2ccccc2)c([O-])n(CC(C)C)c(=O)c1C#N.FC(F)(F)c1cccc(-[n+]2ccc(-c3cc[n+](-c4cccc(C(F)(F)F)c4)cc3)cc2)c1.[Co+3].[Co+3]
Result string: 0 nm
